- Tested on: JAK1-dependent STAT6 phosphorylation downstream of IL-13 stimulation in TF-1 human erythroleukemia cells
- assay.comment: JAK1 pathway assay in TF-1 cells (IL-13-pSTAT6, MSD)
- Assay type: cell-based
- test.settings: Homo sapiens, TF-1, TF-1 cells, read-out: IL13-pSTAT6 EC50_TF-1
pEC50: −log10 of the molar value.
observed.property: pEC50

molecule | pEC50
Nc1nn2cccnc2c1C(=O)Nc1cn(CC(=O)N2CCC(N3CC[C@H](O)C3)CC2)nc1-c1cc(Cl)ccc1OC(F)F [Example 77] | 6.68

A. CCCCN(CC(F)(F)F)C1CCN(C(=O)Cn2cc(NC(=O)c3cnn4cccnc34)c(-c3cc(Cl)ccc3OC(F)F)n2)CC1 [Example 115]
B. O=C(Nc1cn(CC(=O)N2CCC(N3CCCC3)CC2)nc1-c1cc(Cl)ccc1OC(F)F)c1cnn2cccnc12 [Example 69]
C. Nc1nn2cccnc2c1C(=O)Nc1cn(C2CCN(CCCO)CC2)nc1-c1cc(Cl)ccc1OC(F)F [Example 176]
D. O=C(Nc1sc(-c2ccc(CN3CC(F)(F)C3)cc2)nc1-c1cc(Cl)ccc1OC(F)F)c1cnn2cccnc12 [Example 257]
INPUT: Sort ascending by pEC50. In your reply, arrange the labels in the requested order.
OUTPUT: D, A, B, C

====

Examples of compounds with documented IV Mouse CL, % of liver blood flow follow.
- assay.comment: Clearance assay: mouse intravenous (IV) clearance
- Format: in vivo
- test.settings: female BALB/c mice, single IV dose of 1 mg/kg; clearance as % of mouse liver blood flow

Here's what some known entries look like.
smiles.data | IV Mouse CL, % of liver blood flow
CN(CC(F)(F)F)C1CCN(c2nc(-c3cc(Cl)ccc3OC(F)F)c(NC(=O)c3cnn4cccnc34)s2)CC1 | >100%
O=C(Nc1cn(CC(=O)N2C[C@H]3CN(CC(F)(F)F)C[C@H]3C2)nc1-c1cc(Cl)ccc1OC(F)F)c1cnn2cccnc12 | 43%
CN1C[C@@H]2CN(C(=O)Cn3cc(NC(=O)c4cnn5cccnc45)c(-c4cc(Cl)ccc4OC(F)F)n3)C[C@@H]2C1 | >100%

Entry CN(CCC#N)C1CCN(C(=O)Cn2cc(NC(=O)c3cnn4cccnc34)c(-c3cc(Cl)ccc3OC(F)F)n2)CC1 , IV Mouse CL, % of liver blood flow reported as >100%

====

- experimental.target: isolated recombinant JAK2 kinase domain (Homo sapiens (Human))
- Sequence (O60674 849-1124): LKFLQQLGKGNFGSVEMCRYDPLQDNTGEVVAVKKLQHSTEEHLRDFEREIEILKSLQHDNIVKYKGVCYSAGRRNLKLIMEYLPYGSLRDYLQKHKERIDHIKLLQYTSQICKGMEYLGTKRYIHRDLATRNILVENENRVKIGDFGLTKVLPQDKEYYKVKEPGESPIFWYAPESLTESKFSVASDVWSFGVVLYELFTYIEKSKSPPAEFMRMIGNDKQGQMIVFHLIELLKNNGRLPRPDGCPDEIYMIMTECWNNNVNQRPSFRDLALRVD
- assay.comment: JAK2 enzyme assay (Caliper LabChip, peptide phosphorylation)
- test.settings: 25 μM ATP
observed.property: Ki (nM)

Worked cases, answers included:
compound | reported.measurement
O=C(Nc1cn(CC(=O)N2CCC(N3Cc4ccc(Cl)cc4C3)CC2)nc1-c1cc(Cl)ccc1OC(F)F)c1cnn2cccnc12 | 1.15
CN1C[C@@H]2CN(Cc3nc(-c4cc(Cl)ccc4OC(F)F)c(NC(=O)c4cnn5cccnc45)s3)C[C@@H]2C1 | 1.73
O=C(Nc1cn(CC(=O)N2CC3CCCNC3C2)nc1-c1cc(Cl)ccc1OC(F)F)c1cnn2cccnc12 (stereo not shown) | 0.78
O=C(Nc1cn(CC(=O)N2CCOC(CO)C2)nc1-c1cc(Cl)ccc1OC(F)F)c1cnn2cccnc12 (stereo not shown) | 0.83

1. O=C(Nc1cn(CC(=O)N2CCNCC2)nc1-c1cc(Cl)ccc1OC(F)F)c1cnn2cccnc12
2. N#CCCCNC1CCN(C(=O)Cn2cc(NC(=O)c3cnn4cccnc34)c(-c3cc(Cl)ccc3OC(F)F)n2)CC1
3. CN1CC2CN(C(=O)Cn3cc(NC(=O)c4c(N)nn5cccnc45)c(-c4cc(Cl)ccc4OC(F)F)n3)CC2C1 (stereo not shown)
INPUT: Sort entries by Ki from minimum to maximum value. Could you list the labels in the order requested?
OUTPUT: 3, 2, 1
(3: 0.28 nM, 2: 1.11 nM, 1: 1.61 nM)
